- TEST_TARGET: HER2 cytoplasmic domain (Homo sapiens, UniProt P04626)
- Sequence (P04626 676-1255 limits assumed): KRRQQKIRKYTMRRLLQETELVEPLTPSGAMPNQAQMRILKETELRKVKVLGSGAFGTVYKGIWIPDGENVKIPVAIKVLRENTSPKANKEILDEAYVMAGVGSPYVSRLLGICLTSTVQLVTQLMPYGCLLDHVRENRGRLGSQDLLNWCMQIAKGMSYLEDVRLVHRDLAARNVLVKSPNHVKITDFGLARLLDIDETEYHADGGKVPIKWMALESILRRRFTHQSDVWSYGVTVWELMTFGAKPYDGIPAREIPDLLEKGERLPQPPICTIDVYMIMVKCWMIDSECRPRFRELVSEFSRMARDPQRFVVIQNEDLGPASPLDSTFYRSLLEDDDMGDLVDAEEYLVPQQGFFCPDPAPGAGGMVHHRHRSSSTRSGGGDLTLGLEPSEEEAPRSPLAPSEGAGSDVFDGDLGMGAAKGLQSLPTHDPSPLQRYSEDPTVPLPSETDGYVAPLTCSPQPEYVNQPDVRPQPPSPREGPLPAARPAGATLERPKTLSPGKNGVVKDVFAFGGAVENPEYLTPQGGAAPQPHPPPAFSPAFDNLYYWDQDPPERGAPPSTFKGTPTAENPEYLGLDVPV
We begin with a simple list: items and their reported IC50.

Check out these entries, answers already filled in.
record_smiles=CNC(=O)n1c(C)cc2c(F)c(Oc3ncnc(N)c3C=NOC)ccc21 assay_value="> 10 µM"
record_smiles=CON=Cc1c(N)ncnc1Oc1ccc(CC(=O)Nc2cccc(F)c2)cc1 assay_value="2.8 µM"
record_smiles=CON=Cc1c(N)ncnc1Oc1ccc(NC(=O)Nc2cc(C)on2)c(Cl)c1 assay_value="> 10 µM"
record_smiles=CON=Cc1c(N)ncnc1Oc1ccc(NC(=O)Nc2nc(C)cs2)c(Cl)c1 assay_value="> 1 µM"

q: Could you share which IC50 value was measured for CON=Cc1c(N)ncnc1Oc1ccc(NC(=O)Nc2ccc(C)cc2)c(Cl)c1 ?
a: > 100 µM

q: Next compound: CON=Cc1c(N)ncnc1Oc1ccc(NC(=O)NCCN(C)C)c(Cl)c1
a: > 10 µM

q: Next compound: CCCON=Cc1c(N)ncnc1Oc1ccc2[nH]c(C)cc2c1F
a: > 100 µM

q: Next compound: CNC(=O)Nc1ccc(Oc2ncnc(N)c2C=NOC)cc1Cl
a: > 100 µM

q: Next compound: CCNC(=O)Nc1ccc(Oc2ncnc(N)c2C=NOCCN2CCOCC2)cc1Cl
a: > 100 µM

q: Next compound: CON=Cc1c(N)ncnc1Oc1ccc(NC(=O)Nc2ccccc2C)c(Cl)c1
a: > 100 µM

q: Next compound: Cc1cc2c(F)c(Oc3ncnc(N)c3C=NOCCCCN3CCCCC3)ccc2[nH]1
a: 0.282 µM
